B1: PRIM1 (parent)
chain: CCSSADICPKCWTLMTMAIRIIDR

variants of: B1; experiment: protein stability index of a GFP-peptide fusion (GPS, HEK-293T) (PSI 1-6); higher = more stable; settings: c terminus: a fixed tail appended;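 note: lentivirally expressed fusions sorted by FACS into six bins by GFP to DsRed ratio, PSI derived from sequencing read proportions per bin multiplied by bin number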
metric: protein stability index
Write the value as a bare number.

Solved entries:
C8Q	1.8
M15K	2.45
D6T	2.29
W12K	2.64

// sample "D23L" , its protein stability index was 2.25

// sample "I19T" , its protein stability index was 2.98

// sample "D23N" , its protein stability index was 1.47
